experiment: NCI Yeast Anticancer Drug Screen. Data for the mlh1 rad18 strain (AID 175); settings: S. cerevisiae mlh1 rad18 strain growth inhibition; at 50.0 µM; active compounds read high
About 79,000 compounds went through this panel and 15% of them were active in at least one assay; those are over-represented in the sample as a whole.
Listed below: growth inhibition values for each entry.

>  <compound>
CCCCOC(=O)C(C)OC(=O)Nc1ccccc1 (stereo not given)

>  <growth inhibition [%]>
12

$$$$
>  <compound>
COC(OC)c1cc(C(=O)O)c2ccccc2n1

>  <growth inhibition [%]>
-6.6

$$$$
>  <compound>
COC(=O)/C(=N/O)C(C(=O)C=C(C)C)C(=O)C(=O)Nc1nc2ccc([N+](=O)[O-])cc2s1 (stereo not given)

>  <growth inhibition [%]>
6.25

$$$$
>  <compound>
NC(=O)C1CCCCC1C(=O)O (stereo not given)

>  <growth inhibition [%]>
14.8

$$$$
>  <compound>
COC(=O)c1ccccc1O

>  <growth inhibition [%]>
-19.5

$$$$
>  <compound>
CCC(C)NC(=O)c1cccc2c1-c1ccccc1C2=O (stereo not given)

>  <growth inhibition [%]>
14.4

$$$$
>  <compound>
CC(=O)C1C(=O)C(=O)N(c2ccccc2C)C1=O (stereo not given)

>  <growth inhibition [%]>
-25.4

$$$$
>  <compound>
O=C/C=C/N=c1ccn(O)cc1

>  <growth inhibition [%]>
2.1

$$$$
>  <compound>
Cc1cc(=O)c2ccccc2o1

>  <growth inhibition [%]>
-13.7

$$$$
>  <compound>
CCOP(=O)(OCC)/C(C#N)=C\c1ccc(N(C)C)cc1

>  <growth inhibition [%]>
-0.65

$$$$
>  <compound>
CCCCCc1nnc2n1N=C(c1ccc(Cl)cc1)CS2

>  <growth inhibition [%]>
3.5

$$$$
>  <compound>
CC1=NN(C(=O)CC(=O)Nc2ccccc2C)C(=O)C1N=Nc1ccc(S(=O)(=O)c2ccc(N=NC3C(=O)N(C(=O)CC(=O)Nc4ccccc4C)N=C3C)cc2)cc1 (stereo not given)

>  <growth inhibition [%]>
1.35

$$$$
>  <compound>
N#CNC(=NCC1CCCO1)Nc1cccnc1 (stereo not given)

>  <growth inhibition [%]>
-2.35

$$$$
>  <compound>
O=C(CCC(=O)Nc1ccc(Cl)c(Cl)c1)CC(=O)c1ccc(F)cc1

>  <growth inhibition [%]>
-1.65

$$$$
>  <compound>
CC1CN=C(N(C(=O)Nc2ccc(Cl)c(Cl)c2)c2ccccc2)S1 (stereo not given)

>  <growth inhibition [%]>
-3.3

$$$$
>  <compound>
CC1=CC2C3C(=O)NC(=O)C3C1C1C3C(=O)NC(=O)C3C21 (stereo not given)

>  <growth inhibition [%]>
16.4

$$$$
>  <compound>
COc1cc(NCCNCC(C)(C)C)c2ncccc2c1

>  <growth inhibition [%]>
0.5

$$$$
>  <compound>
ClCCn1nc2c(c1-c1ccccc1)CCc1ccccc1-2

>  <growth inhibition [%]>
-2.85

$$$$
>  <compound>
O=C(O)CCN(CCC(=O)O)S(=O)(=O)c1ccccc1

>  <growth inhibition [%]>
22.9

$$$$
>  <compound>
COc1ccccc1NC(=O)CC(=O)n1nc(C)c(N=Nc2ccccc2C(=O)O)c1C

>  <growth inhibition [%]>
-9.5

$$$$
>  <compound>
Nc1ccc2c(c1)NCC2

>  <growth inhibition [%]>
-16.6

$$$$
>  <compound>
COC(CC1(OC)OC(=O)C=C1N)OC (stereo not given)

>  <growth inhibition [%]>
-3.05

$$$$
>  <compound>
O=C(C[n+]1ccccc1Br)c1ccc(I)cc1

>  <growth inhibition [%]>
29.9

$$$$
>  <compound>
N#CCc1c(F)c(F)c(F)c(F)c1F

>  <growth inhibition [%]>
2.6

$$$$
>  <compound>
CCCCN(C(=O)N(CC)CC)[Si](C)(C)C

>  <growth inhibition [%]>
-25.3

$$$$

====

growth inhibition values for the molecules below.
assay: NCI Yeast Anticancer Drug Screen. Data for the bub3 strain (AID 167); conditions: S. cerevisiae bub3 mutant strain, at 50.0 µM, active compounds read high
This is part of a sample that, as a whole, favours compounds with a hit. Of some 79,000 tested, about 15% had one in any assay.
endpoint label: growth inhibition (%)

>  <molecule>
CC1(C)C=Cc2c(ccc3[nH]c4occc4c(=O)c23)O1

>  <endpoint label>
growth inhibition

>  <numeric value>
11.4

$$$$
>  <molecule>
C[N+]1(C)CCC(c2ccccc2)(c2ccccc2)C(O)C1 (stereo unspecified)

>  <endpoint label>
growth inhibition

>  <numeric value>
-8.5

$$$$
>  <molecule>
CC1OC(C)(c2ccccc2)OC1C (stereo unspecified)

>  <endpoint label>
growth inhibition

>  <numeric value>
32.7

$$$$
>  <molecule>
COc1ccc(C)cc1CC(=O)O

>  <endpoint label>
growth inhibition

>  <numeric value>
6.25

$$$$
>  <molecule>
O=[N+]([O-])c1cc(F)ccc1-c1ccc(F)cc1

>  <endpoint label>
growth inhibition

>  <numeric value>
2.8

$$$$
>  <molecule>
Cc1c(-c2ccccc2)c(=O)oc2ccc(Cl)cc12

>  <endpoint label>
growth inhibition

>  <numeric value>
-14.9

$$$$
>  <molecule>
CC(C)(N)C(=O)O

>  <endpoint label>
growth inhibition

>  <numeric value>
-12.1

$$$$
>  <molecule>
OC1c2ccccc2-c2c(Cl)cc(Cl)cc21 (stereo unspecified)

>  <endpoint label>
growth inhibition

>  <numeric value>
3.95

$$$$
>  <molecule>
CC(C)(C)c1cc(C2OC(N)=C(O)C2=O)cc(C(C)(C)C)c1O (stereo unspecified)

>  <endpoint label>
growth inhibition

>  <numeric value>
5.4

$$$$
>  <molecule>
O=C(c1cccc(C(=O)N(c2ccccc2)c2ccccc2)n1)N(c1ccccc1)c1ccccc1

>  <endpoint label>
growth inhibition

>  <numeric value>
-11.8

$$$$
>  <molecule>
COc1cc(NC(C)CCCNC(C)C)c2nccc(C)c2c1 (stereo unspecified)

>  <endpoint label>
growth inhibition

>  <numeric value>
11.6

$$$$
>  <molecule>
COC(=O)c1nc2c(N)nc(-c3ccccc3)nc2nc1N

>  <endpoint label>
growth inhibition

>  <numeric value>
-16.6

$$$$
>  <molecule>
COC(=O)CSc1n[nH]c(-c2ccccc2)n1

>  <endpoint label>
growth inhibition

>  <numeric value>
3.4

$$$$
>  <molecule>
C[N+](C)(C)C(Cc1c[nH]c(=S)[nH]1)C(=O)O (stereo unspecified)

>  <endpoint label>
growth inhibition

>  <numeric value>
-8.4

$$$$
>  <molecule>
C=CCON(C)c1ccc([N+](=O)[O-])cc1[N+](=O)[O-]

>  <endpoint label>
growth inhibition

>  <numeric value>
-1.05

$$$$
>  <molecule>
CCC(O)C(=O)O (stereo unspecified)

>  <endpoint label>
growth inhibition

>  <numeric value>
-9.9

$$$$
>  <molecule>
CCC(=O)OC1=CC(=O)c2ccccc2C1=O

>  <endpoint label>
growth inhibition

>  <numeric value>
-15.5

$$$$
>  <molecule>
COc1ccc(/C(C)=N/OC(=O)c2sc3ccccc3c2Cl)cc1CN1CCOCC1

>  <endpoint label>
growth inhibition

>  <numeric value>
-28.9

$$$$
>  <molecule>
O=C(Cn1c(-c2ccccc2)cc2ccccc21)N1CCOCC1

>  <endpoint label>
growth inhibition

>  <numeric value>
1.65

$$$$
>  <molecule>
O=c1sc2ncccc2n1-c1ccc([N+](=O)[O-])cn1

>  <endpoint label>
growth inhibition

>  <numeric value>
11.9

$$$$
>  <molecule>
O=C(/C(=C\C(=O)c1cccs1)c1ccsc1)c1ccc(Br)cc1

>  <endpoint label>
growth inhibition

>  <numeric value>
14.5

$$$$
>  <molecule>
CCOC(=O)c1nc(-c2ccccc2)c(-c2ccccc2)c(-c2ccccc2)c1C

>  <endpoint label>
growth inhibition

>  <numeric value>
-0.6

$$$$
>  <molecule>
Cc1ccc(C(=O)c2ccc(O)cc2)cc1

>  <endpoint label>
growth inhibition

>  <numeric value>
-7.6

$$$$
>  <molecule>
COC(=O)NC1(NC(=O)OC)NC(=O)c2cc(OC)c(OC)c(OC)c2N1

>  <endpoint label>
growth inhibition

>  <numeric value>
-12.3

$$$$
>  <molecule>
O=C(O)c1ccc(N2CCOCC2)cc1

>  <endpoint label>
growth inhibition

>  <numeric value>
-9.3

$$$$
>  <molecule>
Nc1ccc(S(=O)(=O)N(CCO)CCO)cc1

>  <endpoint label>
growth inhibition

>  <numeric value>
-18.8

$$$$
